In this section we review reported folding stability dG values for a set of variants.
B1: 2K2A (parent)
chain: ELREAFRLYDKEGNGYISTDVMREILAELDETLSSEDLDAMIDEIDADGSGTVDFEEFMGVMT

Variants of: B1
Experiment: folding stability dG (cDNA display proteolysis); higher = more stable
Settings: PBS, room temperature
Lab book: enter the figure in kcal/mol, no units written.

residue.codes: ELREAFRLYDKEGNGYISTDVMREILAELDETLSSEDLDAMIDLIDADGSGTVDFEEFMGVMT
folding stability dG / kcal/mol: 2.19

Here is another variant to look at.
What measured folding stability dG goes with ELREAFRLYDKEGNGYISTDVMREILAELDETLSSEDLDAMIDEIDADGSGTVDFEEFMGVMW ?
1.33
